The origin of these recorded values is ChEMBL document CHEMBL1201862.

Tested on: MDA-MB-231
Assay: NCI tumour cell line growth inhibition, 48 h
Activity calls are given as the source filed them. Cut-off read from the data, not from the text of the source: active = GI50 up to about 1.1 µM and inactive = higher.
Items are presented alongside their recorded GI50.
RESULT_TYPE: GI50

* CC1(C)N=C(N)N=C(N)N1c1cccc(OCc2cccc([N+](=O)[O-])c2)c1 | > 53.8 µM (inactive)
* CC(SC(=S)N1CCOCC1)C(=O)Nc1nnc(-c2ccccc2)o1 (stereo unspecified) | > 100 µM (inactive)
* NC1CC2C3CCC2C1C3=O (stereo unspecified) | > 100 µM (inactive)
* Cc1ccc2nc(CN(CCO)CCO)cc(=O)n2c1 | > 100 µM (inactive)
* CC(C)NCCCNc1c2ccccc2nc2cccc([N+](=O)[O-])c12 | 0.0132 µM (active)
* N#CC12CC(C=O)=C(N)C1(C#N)CC(C=O)=C2N (stereo unspecified) | > 100 µM (inactive)
